molecular target: OXA-23 (Acinetobacter baumannii); assay: Inhibition of nitrocefin cleavage by purified OXA-23; conditions: nitrocefin reporter substrate; 10 min preincubation at room temperature; read-out: Ki (OXA-23, NCF)
Sequence (Q9L4P2 18-273): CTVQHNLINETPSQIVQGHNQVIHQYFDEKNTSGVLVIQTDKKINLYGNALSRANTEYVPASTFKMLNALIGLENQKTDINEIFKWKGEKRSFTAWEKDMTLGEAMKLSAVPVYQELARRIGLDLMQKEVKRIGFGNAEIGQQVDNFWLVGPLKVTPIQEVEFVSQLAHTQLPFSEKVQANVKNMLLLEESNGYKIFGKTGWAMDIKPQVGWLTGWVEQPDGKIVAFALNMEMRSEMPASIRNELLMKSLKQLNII
property_label: Ki

Worked cases, Ki given:
O=C(O)c1cccc2c1OB(O)C1CC21 (centres unmarked)    < 100 nM
COc1ccc2c(c1C(=O)O)OB(O)C1CC21 (centres unmarked)    < 100 nM
COc1ccc2c(c1C(=O)O)OB(O)C1C2[C@H]2C=C[C@@H]1C2 (some centres unmarked)    100 to 1000 nM
C[C@]1(Cn2ccnn2)[C@H](C(=O)O)N2C(=O)C[C@H]2S1(=O)=O [Tazobactam, reference compound]    100 to 1000 nM
O=C(O)c1nccc2c1OB(O)[C@@H]1C[C@H]21    < 100 nM
COc1ccc2c(c1C(=O)O)OB(O)CC21CC1    < 100 nM
COc1ccc2c(c1C(=O)O)OB(O)C(F)=C2    < 100 nM
COc1ccc2c(c1C(=O)O)OB(O)C=C2    < 100 nM

Ki recorded for this molecule, O=C(O)c1c(F)ccc2c1OB(O)C1CC21 (centres unmarked) , is < 100 nM

Ki recorded for this molecule, COc1ccc2c(c1C(=O)O)OB(O)C1C2[C@H]2CC[C@@H]1C2 (some centres unmarked) , is < 100 nM

Ki recorded for this molecule, O=C(O)c1c(OCCF)ccc2c1OB(O)C1CC21 (centres unmarked) , is < 100 nM

Ki recorded for this molecule, COc1ccc2c(c1C(=O)O)OB(O)C1C2C1(F)F (centres unmarked) , is < 100 nM

The reported measurements were obtained from patent US11999759B2.
